These data points were gathered from ChEMBL document CHEMBL5303304.

system: HEK-293T; assay: Incucyte cell viability with HEK293T; type: toxicity, cell-based; conditions: human, 18 h, 10 µM, compound concentration 10 uM, replicate number 2; also: unitless GR value; below 1 slowed growth and below 0 cell loss
We begin with a simple list: items and their reported Growth Rate.
reported metric: Growth Rate

- smiles input: "Cc1ccc(NC(=O)c2ccc3cnccc3c2)cc1C(=O)Nc1cnc(Nc2cccc(NC3CCN(C(=O)/C=C/CN(C)C)CC3)c2)nc1"
  numeric result: -0.56
- smiles input: "Cc1n[nH]c2ncc(C(=O)N3CCC[C@H]3c3ccc(Cl)cc3)cc12"
  numeric result: 1
- smiles input: "Cc1cc([N+](=O)[O-])c(NS(=O)(=O)c2cccc(C(=O)O)c2)cc1-c1cccnc1"
  numeric result: 0.78
- smiles input: "Cc1ccc2c(NS(=O)(=O)c3ccccc3Cl)cccc2c1Oc1ncccc1-c1ccnc(N[C@H]2CCCNC2)n1.Cl"
  numeric result: 0.6
- smiles input: "Cc1nc2c([nH]1)c(=O)n(C)c(=O)n2Cc1ccco1"
  numeric result: 0.82
- smiles input: "C#Cc1cnc2[nH]cc(-c3cccc4c3CCN4C(=O)[C@@H]3CCCN3C#N)c2c1"
  numeric result: -0.5
- smiles input: "CCC(=O)N[C@H]1CC[C@@H](C(=O)N(C)c2ccc(-c3nc4ccccc4o3)cc2)C1"
  numeric result: 0.51
- smiles input: "O=C1Nc2ccc(I)cc2/C1=C/c1cc(Br)c(O)c(Br)c1"
  numeric result: 0.88
- smiles input: "CCOP(=O)(OCC)C(=Cc1cc(C(C)(C)C)c(O)c(C(C)(C)C)c1)P(=O)(OCC)OCC"
  numeric result: 0.79
- smiles input: "CC(=O)c1c(C)c2cnc(Nc3ccn(C)n3)nc2n(C2CCCC2)c1=O"
  numeric result: 0.79
- smiles input: "CN[C@@H](C)C(=O)N[C@H]1CN(C(=O)CC(C)C)CC[C@H]2CC[C@@H](C(=O)NC(c3ccccc3)c3ccccc3)N2C1=O"
  numeric result: 0.97
- smiles input: "CC(C)(O)[C@H]1CC[C@H](Nc2ccc3ncc(-c4cccc(C(F)(F)F)c4)n3n2)CC1"
  numeric result: -0.12
